tested on: L929; assay: Cytotoxicity against mouse L929 cells assessed as reduction in cell viability after 24 hrs by MTT assay; type: cell-based; details: l929, 24 h
Assay Readout: CC30 (µM)
Field format: number, assumed µM, no unit text.

Some entries whose results are on file:
| Compound | Test Value |
| --- | --- |
| Brc1ccc(-c2csc(N/N=C/c3cc4ccccc4s3)n2)cc1 | 283.56 |
| Cc1ccc(-c2csc(N/N=C/c3cc4ccccc4s3)n2)cc1 | 884.28 |
| Ic1ccc(-c2csc(N/N=C/c3cc4ccccc4s3)n2)cc1 | 946.2 |
| Fc1ccc(-c2csc(N/N=C/c3cc4ccccc4s3)n2)cc1 | 1385.75 |
| COc1cc(Cc2cnc(N)nc2N)cc(OC)c1OC [TRIMETHOPRIM] | 55.11 |
| Clc1ccc(-c2csc(N/N=C/c3cc4ccccc4s3)n2)cc1 | 1255.05 |

Attention now shifts to the item below.
Reported CC30, compound C(=N\Nc1nc(C23CC4CC(CC(C4)C2)C3)cs1)/c1cc2ccccc2s1 : ____ 1333.46
